protocol text: cancer stem cell viability inhibitors, primary screen, luminescence (AID 2717)
test conditions: cancer stem cell-like cells viability, at 7.5 µM, hits give high values
In all, about 300,000 compounds went through this assay and about 3,200 (1.1%) were called active. Only a selection was taken, and actives are over-represented in it overall.
The reader will find reported inhibition values listed item by item below.

cpd smiles	reading unit	inhibition
CN1CCN(c2ccc(S(=O)(=O)Nc3ccccc3)cc2[N+](=O)[O-])CC1	%	49.9
Cc1nc2ccc(NC(=O)c3cccc(S(=O)(=O)N4CCOCC4)c3)cc2s1	%	-13.4
COc1cc2cc(C(=O)N/N=C/c3cccc(OC)c3OC)[nH]c2cc1OC	%	8.69
O=C(CN1C(=O)NC2(CCCCCC2)C1=O)Nc1ccc([N+](=O)[O-])cc1	%	-18.6

* * *

protocol text: cancer stem cell viability inhibitors, primary screen, luminescence (AID 2717)
test conditions: cancer stem cell-like cells viability, at 7.5 µM, hits give high values
The campaign covered roughly 300,000 compounds. About 3,200 (1.1%) were called active. This excerpt belongs to a sample that is enriched for actives.
The reader will find reported inhibition values listed item by item below.
readout label: inhibition (%)

molecule	readout label	reading unit	experimental value
C/C(=N\NC(=S)NCc1ccccc1)c1ccc(Cl)cc1	inhibition	%	41.6
O=C(Nc1cc(S(=O)(=O)N2CCCCC2)ccc1Cl)C1COc2ccccc2O1 (stereo not given)	inhibition	%	-13.5
CCC[C@H]1CCCC/C=C\CCCC(=O)OCCN1C(=O)OC(C)(C)C	inhibition	%	-20.7
CCN(CC)S(=O)(=O)c1ccc(N2CCCC2)c(NC(=O)c2ccc([N+](=O)[O-])o2)c1	inhibition	%	27.4
O=C(CSc1ccc(-c2ccc(Br)cc2)nn1)NCC1CCCO1 (stereo not given)	inhibition	%	1.96

* * *

protocol text: cancer stem cell viability inhibitors, primary screen, luminescence (AID 2717)
test conditions: cancer stem cell-like cells viability, at 7.5 µM, hits give high values
The campaign covered roughly 300,000 compounds. About 3,200 (1.1%) were called active. The sample as a whole holds a higher share of actives than the screen did.
readout label: inhibition (%)

cpd smiles	reading unit	experimental value
CCCCNc1nc2c(c(=O)n(C)c(=O)n2C)n1Cc1cccc(OC)c1	%	-3.15
COc1ccc(Nc2nc(-c3cccnc3)nc3ccccc23)cn1	%	2.87
COc1ccc(/C=C/C(=O)Nc2ccc(C34CC5CC(CC(O)(C5)C3)C4)cc2)cc1OC	%	91
CC(=O)Nc1cccc(Nc2nc(-c3cccs3)nc3ccccc23)c1	%	33.9
O=c1c(-c2ccccc2)coc2cc(O)ccc12	%	0.886
CC(C)CN(Cc1c(O)ccc2c(=O)c(-c3ccccc3)coc12)CC(C)C	%	-0.974
COc1cccc(CNC(=O)CCCC(=O)Nc2cccc([N+](=O)[O-])c2)c1	%	-9.18
COc1cccc(/C(C)=N/Nc2ncc(Cl)cc2Cl)c1	%	24.2
O=C(O)c1ccc(Cn2c(=S)[nH]c3cc(Cl)ccc3c2=O)cc1	%	-3.92
COc1ccc(CCNc2nc3ccc(C)cc3n3cnnc23)cc1OC	%	-23.4
COc1cc(/C=C(\C#N)c2nc3ccccc3[nH]2)ccc1O	%	33.3
Clc1cccc(N=C2NN=C(c3ccc4c(c3)OCCO4)CS2)c1	%	17.2
COC(=O)/C=C\C(=O)Nc1cccc([N+](=O)[O-])c1	%	88.5
O=C(COc1ccc([N+](=O)[O-])cc1Cl)Nc1ccc2[nH]c(=O)[nH]c2c1	%	-8.82

* * *

protocol text: cancer stem cell viability inhibitors, primary screen, luminescence (AID 2717)
test conditions: cancer stem cell-like cells viability, at 7.5 µM, hits give high values
Hit rate of the full screen: of about 300,000 compounds, about 3,200 (1.1%) were called active. The list comes from a sample in which actives are over-represented; it also holds close analogues and randomly drawn compounds.

cpd smiles	inhibition (%)
O=C(NCC#CCSc1nnc(-c2cccc3ccccc23)o1)c1cccs1	44.4
CC(C)(C)OC(=O)C[C@@H]1C/C=C\C[C@H](CC(=O)N[C@@H](CO)Cc2ccccc2)C(=O)N[C@H](Cc2ccccc2)COC1=O	-5.32
CCN1CCN(CCNC(=O)c2ccc3c(c2)NC(=O)/C(=C\c2ccc(OC)c(OC)c2)S3)CC1	12.1
CCOC(=O)c1c(-c2ccccc2)oc2ccc(OCC(N)=O)cc12	-4.93
CN1CCN(C(=O)c2ccc(-c3ccc(Br)cc3)o2)CC1	44
O=C(NNS(=O)(=O)c1c(F)cc(F)c(Cl)c1F)C12CC3CC(CC(C3)C1)C2	-12.7
COc1ccccc1C(=O)NCC(=O)OCC(=O)NNC(=O)c1ccc(Br)cc1	-1.35
Clc1ccc(CN2CCN(/N=C/c3cccnc3)CC2)cc1	3.75
COC(=O)Cc1ccc(Oc2ncc(C(F)(F)F)cc2Cl)cc1	-10.7
CCOC(=O)c1c(-c2ccccc2)oc2cc(Br)c(O)c(C=O)c12	100

* * *

protocol text: cancer stem cell viability inhibitors, primary screen, luminescence (AID 2717)
test conditions: cancer stem cell-like cells viability, at 7.5 µM
Hit rate of the full screen: of about 300,000 compounds, about 3,200 (1.1%) were called active. Cut-off read from the data, not from the text of the source: active = inhibition above about 75%; inconclusive = no clear call, values can overlap the other calls; inactive = below that; tested in HMLE shEcad cells. Many of the other results were omitted from the sample, so actives are more common in it than they were.
Outcomes: active, inactive

cpd smiles	class assignment
COc1ccc2sc(-c3ccc(N(C)C)cc3)c(C#CCO)c2c1	active
Fc1ccccc1-c1cc2cc3c(cc2cn1)OCO3	inactive
CC(C)(C)OC(=O)CNC(=O)c1[nH]cnc1C(=O)N[C@@H](CCCCN)C(=O)OC(C)(C)C	inactive
CN(Cc1ccc(F)cc1)C(=O)CN1C(=O)c2ccccc2S1(=O)=O	inactive

* * *

protocol text: cancer stem cell viability inhibitors, primary screen, luminescence (AID 2717)
test conditions: cancer stem cell-like cells viability, at 7.5 µM
The campaign covered roughly 300,000 compounds. About 3,200 (1.1%) were called active. No stated cut-off is given here; in the data, active means inhibition above about 75%; inconclusive means no clear call, values can overlap the other calls; inactive means below that; tested in HMLE shEcad cells. The list comes from a sample in which actives are over-represented; it also holds close analogues and randomly drawn compounds.
Outcomes: TRUE = active, FALSE = inactive

compound	class assignment
O=C1CC2(CCCC2)C(=O)N1CN1CCN(S(=O)(=O)c2ccc(F)cc2F)CC1	FALSE
C=CC[C@@H](CC(=O)N[C@@H](CO)Cc1ccccc1)C(=O)NCCOC(=O)[C@@H](CC=C)CC(=O)OC(C)(C)C	FALSE
O=C(CN1C(=O)NC2(CCCCCCC2)C1=O)NCc1ccc(F)cc1	FALSE
Cc1ccc(C(=O)NCC(=O)NC2CC2)cc1	FALSE
COc1ccc(C=Nc2cccc3ncccc23)cc1	FALSE
CC(C)(C)OC(=O)C[C@@H]1C/C=C\C[C@@H](CC(=O)N[C@H](CO)Cc2ccccc2)C(=O)NC[C@@H](c2ccccc2)OC1=O	FALSE
Cn1cncc1C#Cc1c(-c2ccsc2)sc2ccccc12	TRUE
COc1ccc(-c2oc(/N=C/N3CCCC3)c(C#N)c2-c2ccc(OC)cc2)cc1	FALSE
O=[N+]([O-])c1ccc(N=Cc2c(O)ccc3ccccc23)cc1	FALSE
Cc1ccccc1NC(=O)CSC(=O)c1ccccc1	FALSE
CC(C)Cn1c(SCC(=O)Nc2ccc(Cl)cc2F)nc(O)cc1=O	FALSE
Cc1cccc(-n2ncc(Cl)c(Cl)c2=O)c1	TRUE
Cc1cccc(OCC(=O)OCC(=O)Nc2ccc(Cl)cn2)c1	FALSE
Oc1c(C=Nc2cccc3nsnc23)ccc2ccccc12	TRUE
COC(=O)c1ccc(C)c(NC(=O)Cn2c(C)csc2=O)c1	FALSE
O=C(O)CC1=C(Nc2ccccc2)C(=O)N(c2ccccc2)C1c1ccc(Cl)cc1 (centres undefined)	FALSE
Cc1cccc(-n2ncc(C#N)c2-n2cccc2)c1	FALSE
CCC(C)(C)c1ccc(Oc2ccc(NC(=O)COC(=O)C3=COCCO3)cc2)cc1	TRUE
N#Cc1c(NC(=O)CCCN2C(=O)c3ccccc3C2=O)oc(-c2ccccc2)c1-c1ccccc1	FALSE
O=C1C=C(c2ccc(Cl)cc2)C(=O)N1Nc1ccccc1	TRUE
CN(CC(=O)Nc1ccc(Cl)cc1)C(=O)c1ccc(COc2ccccc2)cc1	FALSE
O=C(NCc1ccc2c(c1)OCO2)c1c(-c2ccsc2)sc2ccccc12	FALSE
CCc1c(C)sc(NC(=O)c2ccc(Br)o2)c1C(=O)OC	FALSE
COc1ccc(C2(c3ccc(OC)cc3)NC(=O)N(CC(=O)Nc3cc(C)on3)C2=O)cc1	FALSE

* * *

protocol text: cancer stem cell viability inhibitors, primary screen, luminescence (AID 2717)
test conditions: cancer stem cell-like cells viability, at 7.5 µM
In all, about 300,000 compounds went through this assay and about 3,200 (1.1%) were called active. No stated cut-off is given here; in the data, active means inhibition above about 75%; inconclusive means no clear call, values can overlap the other calls; inactive means below that; tested in HMLE shEcad cells. Only a selection was taken, and actives are over-represented in it overall.
Outcomes: active, inactive

compound	class assignment
CCOC(=O)/C(=C\c1ccc([N+](=O)[O-])cc1)C(=O)c1cc(C(C)=O)c(Nc2ccccc2)s1	active
COc1ccc(S(=O)(=O)N2CCN(C(C)C(=O)Nc3ccc(C(C)C)cc3)CC2)cc1 (configuration not stated)	inactive
CCCCn1c(CCCNC(=O)CC)nc2ccccc21	inactive
CC1(C)C2CC[C@]3(C)C(CC=C4[C@@H]5C[C@@](C)(CO)CC[C@]5(C(=O)O)CC[C@]43C)[C@@]2(C)CC[C@@H]1O (some centres not stated)	inactive
CC(CNC(=O)Cn1cnc2c(OCc3ccccc3)ncnc21)c1ccccc1 (configuration not stated)	inactive
COc1cccc(-c2cc3nc4c(c(N5CCC6(CC5)OCCO6)n3n2)CCCC4)c1	active
Cc1cc(OCCN2CCCC2)ccc1C(C)C	inactive
CCCC(=O)Nc1nc2ccc(NC(=O)c3cccnc3)cc2s1	inactive
CC(C)(c1ccccc1)c1ccc(OCCN2CCCC2)cc1	active
Cc1ccc(S(=O)(=O)N2CCN(C(=O)CN3C(=O)NC(C)(c4ccc(Cl)cc4)C3=O)CC2)c(C)c1 (configuration not stated)	inactive
Cc1c(O)c(C)c2c(c1O)C(=O)C[C@@H](c1ccccc1)O2	inactive
CN1C(=O)[C@H]2[C@@H](/C=C/c3ccccc3)N3C(=O)CN(Cc4ccc(-c5ccccc5)cc4)C(=O)[C@@]3(C)[C@H]2C1=O	inactive
CC1(C)CC[C@@]2(C(=O)O)C(C1)C1=CCC3[C@@]4(C)CC[C@H](O)C(C)(C)C4CC[C@@]3(C)[C@]1(C)C[C@H]2O (some centres not stated)	active
COc1cc(OC)cc(-c2nnc(N(C)C(=O)c3ccncc3)s2)c1	inactive
COCC(C)n1c(SCC(=O)NC2CCCCC2C)nc2ccccc2c1=O (configuration not stated)	inactive
COc1cccc(CNc2nc3nc4c(c(=O)n3[nH]2)CCC4)c1	inactive
O=C(COC(=O)c1c2c(nc3ccccc13)/C(=C\c1cccs1)CCC2)Nc1ccccc1Cl	inactive
CC(C)(c1ccccc1)c1ccc(OCCN)cc1	inactive
CC(OC(=O)/C=C/c1ccccc1)C(=O)Nc1ccc(C(N)=O)cc1 (configuration not stated)	inactive
Cc1cccc(C)c1Nc1nnc(SCC(=O)NCCCN2CCCC2=O)s1	inactive
O=C(CNC(=O)c1ccco1)NNC(=O)c1ccc(Br)cc1	inactive
CO[C@@H]1[C@@H](OC(N)=O)[C@@H](O)C(Oc2ccc3c(O)c(NC(=O)c4ccc(O)c(CC=C(C)C)c4)c(=O)oc3c2C)OC1(C)C (some centres not stated)	inactive
